Where these numbers come from: paper PMC10786919

Recorded cell entry EC50 by entry
Assay Explanation: in vitro
Assay Conditions: Nanoclick permeability assay EC50
Observation Type: cell entry EC50

>>> value_observed("CC(=O)N[C@@H](CCCCN)C(=O)NCCCCCC(=O)N[C@H](C(=O)N[C@@H](CO)C(=O)N[C@@H](Cc1ccccc1)C(=O)N[C@]1(C)CCCCCCC=CCCC[C@@](C)(C(N)=O)NC(=O)[C@H](CC(C)C)NC(=O)[C@H](CC(C)C)NC(=O)[C@H](C)NC(=O)[C@H](Cc2c[nH]c3ccccc23)NC(=O)[C@H](Cc2ccc(O)cc2)NC(=O)[C@H](CCC(=O)O)NC1=O)[C@@H](C)O")
"> 10000 nM"
>>> value_observed("CC(=O)N[C@@H](CCCCN=[N+]=[N-])C(=O)NCCC(=O)N[C@H](C(=O)N[C@@H](CO)C(=O)N[C@@H](Cc1ccccc1)C(=O)N[C@]1(C)CCCCCCC=CCCC[C@@](C)(C(=O)N[C@@H](CO)C(=O)N[C@@H](C)C(=O)N[C@@H](C)C(N)=O)NC(=O)[C@H](CC(C)C)NC(=O)[C@H](CC(C)C)NC(=O)[C@H](C)NC(=O)[C@H](Cc2c[nH]c3ccccc23)NC(=O)[C@H](Cc2ccc(O)cc2)NC(=O)[C@H](CCC(=O)O)NC1=O)[C@@H](C)O")
"38.5 nM"
>>> value_observed("CC(=O)N[C@@H](CCCCN=[N+]=[N-])C(=O)NCCC(=O)N[C@@H](CC(C)C)C(=O)N[C@H](C(=O)N[C@@H](Cc1ccccc1)C(=O)N[C@]1(C)CCCCCCC=CCCC[C@@](C)(C(=O)N[C@@H](CO)C(=O)N[C@H](C)C(=O)N[C@@H](C)C(N)=O)NC(=O)[C@H](CC2CCC2)NC(=O)[C@H](CCC(N)=O)NC(=O)[C@H](C)NC(=O)[C@H](Cc2c[nH]c3cc(Cl)ccc23)NC(=O)[C@H](Cc2ccc(O)cc2)NC(=O)[C@H](CCC(=O)O)NC1=O)[C@@H](C)O")
"706 nM"

* * *

Assay Explanation: Experimental LogD (partition coefficient)
Assay Conditions: not stated, Partition Coeff LogD
Positions of bridges follow the written chain, without caps; N, C: chain ends. Non-standard residues stand in square brackets, D forms with d. Residues, ends and D or L forms follow the SMILES beside them. R8 = C=CCCCCCC[C@@](C)(N)C(=O)O; Cba = N[C@@H](CC1CCC1)C(=O)O; S5 = C=CCCC[C@](C)(N)C(=O)O
Observation Type: logD

>>> value_observed("CC(=O)N[C@@H](CCCCN=[N+]=[N-])C(=O)NCCC(=O)N[C@@H](CC(C)C)C(=O)N[C@H](C(=O)N[C@@H](Cc1ccccc1)C(=O)N[C@]1(C)CCCCCCC=CCCC[C@@](C)(C(=O)N[C@@H](CO)C(=O)N[C@@H](C)C(=O)N[C@@H](C)C(N)=O)NC(=O)[C@H](CC2CCC2)NC(=O)[C@H](CCC(N)=O)NC(=O)[C@H](C)NC(=O)[C@H](Cc2c[nH]c3ccccc23)NC(=O)[C@H](Cc2ccc(O)cc2)NC(=O)[C@H](CCCCN)NC1=O)[C@@H](C)O [MP-548, AZIDE-ATSP-7041 (E5K)]")
3.25
>>> value_observed("CC(=O)N[C@@H](CC(C)C)C(=O)N[C@H](C(=O)N[C@@H](Cc1ccccc1)C(=O)N[C@]1(C)CCCCCCC=CCCC[C@@](C)(C(=O)N[C@@H](CO)C(=O)N[C@@H](C)C(=O)N[C@@H](C)C(N)=O)NC(=O)[C@H](CC2CCC2)NC(=O)[C@H](CCCNC(=N)N)NC(=O)[C@H](CCC(N)=O)NC(=O)[C@H](Cc2c[nH]c3ccccc23)NC(=O)[C@H](Cc2ccc(O)cc2)NC(=O)[C@H](CCC(=O)O)NC1=O)[C@@H](C)O [MP-195] (Ac-LTF[R8]EYWQR[Cba][S5]SAA-NH2; staple 4-11)")
2.87

* * *

Assay Explanation: Solubility assay (kinetic solubility, PBS pH 7)
Type: physicochemical
Assay Conditions: pH 7, aqueous buffer, kinetic from dmso stock, pH 7, PBS; read-out: Solubility
Positions of bridges follow the written chain, without caps; N, C: chain ends. Non-standard residues stand in square brackets, D forms with d. Residues, ends and D or L forms follow the SMILES beside them. Lys(N3) = [N-]=[N+]=NCCCC[C@H](N)C(=O)O; R8 = C=CCCCCCC[C@@](C)(N)C(=O)O; Cba = N[C@@H](CC1CCC1)C(=O)O; S5 = C=CCCC[C@](C)(N)C(=O)O; βAla = NCCC(=O)O
solubility kinetic values by entry
Observation Type: solubility kinetic (µM)

>>> value_observed("CC(=O)N[C@@H](CCCCN=[N+]=[N-])C(=O)NCCC(=O)N[C@@H](CC(C)C)C(=O)N[C@H](C(=O)N[C@@H](Cc1ccccc1)C(=O)N[C@]1(C)CCCCCCC=CCCC[C@@](C)(C(=O)NC(C)(C)C(=O)N[C@@H](C)C(=O)N[C@@H](C)C(N)=O)NC(=O)[C@H](CC2CCC2)NC(=O)[C@H](CCC(N)=O)NC(=O)[C@H](C)NC(=O)[C@H](Cc2c[nH]c3ccccc23)NC(=O)[C@H](Cc2ccc(O)cc2)NC(=O)[C@H](CCC(=O)O)NC1=O)[C@@H](C)O")
140
>>> value_observed("CC(=O)N[C@@H](CC(C)C)C(=O)N[C@H](C(=O)N[C@@H](Cc1ccccc1)C(=O)NC(C)(C)C(=O)N[C@@H](CCC(=O)O)C(=O)N[C@@H](Cc1ccc(O)cc1)C(=O)N[C@H](Cc1c[nH]c2ccccc12)C(=O)N[C@@H](C)C(=O)N[C@@H](CCC(N)=O)C(=O)N[C@@H](CC1CCC1)C(=O)NC(C)(C)C(=O)N[C@@H](CO)C(=O)N[C@@H](C)C(=O)N[C@@H](C)C(N)=O)[C@@H](C)O")
92.5
>>> value_observed("CC(=O)N[C@@H](CCCCN=[N+]=[N-])C(=O)NCCC(=O)N1CCC[C@H]1C(=O)N[C@H](C(=O)N[C@@H](Cc1ccccc1)C(=O)N[C@]1(C)CCCCCCC=CCCC[C@@](C)(C(=O)N[C@@H](CO)C(=O)N[C@@H](C)C(=O)N[C@@H](C)C(N)=O)NC(=O)[C@H](CC2CCC2)NC(=O)[C@H](CCC(N)=O)NC(=O)[C@H](C)NC(=O)[C@H](Cc2c[nH]c3ccccc23)NC(=O)[C@H](Cc2ccc(O)cc2)NC(=O)[C@H](CCC(=O)O)NC1=O)[C@@H](C)O [MP-259] (Ac-[Lys(N3)][βAla]PTF[R8]EYWAQ[Cba][S5]SAA-NH2; staple 6-13)")
90.5
>>> value_observed("CC(=O)N[C@@H](CC(C)C)C(=O)N[C@H](C(=O)N[C@@H](Cc1ccccc1)C(=O)N[C@]1(C)CCCCCCC=CCCC[C@@](C)(C(=O)N[C@@H](CO)C(=O)N[C@@H](C)C(=O)N[C@@H](C)C(N)=O)NC(=O)[C@H](CC2CCC2)NC(=O)[C@H](CC(C)C)NC(=O)[C@H](CCC(N)=O)NC(=O)[C@@H](Cc2c[nH]c3ccccc23)NC(=O)[C@H](Cc2ccc(O)cc2)NC(=O)[C@H](CCC(=O)O)NC1=O)[C@@H](C)O")
11
>>> value_observed("CC(=O)N[C@@H](CC(C)C)C(=O)N[C@H](C(=O)N[C@@H](Cc1ccccc1)C(=O)N[C@]1(C)CCCCCCC=CCCC[C@@](C)(C(=O)N[C@@H](Cc2c[nH]cn2)C(=O)N[C@@H](C)C(=O)N[C@@H](C)C(N)=O)NC(=O)[C@H](CC2CCC2)NC(=O)[C@H](CC(C)C)NC(=O)[C@H](CCC(N)=O)NC(=O)[C@H](Cc2c[nH]c3ccccc23)NC(=O)[C@H](Cc2ccc(O)cc2)NC(=O)[C@H](CCC(=O)O)NC1=O)[C@@H](C)O [MP-201, ATSP-7041 (S12H)] (Ac-LTF[R8]EYWQL[Cba][S5]HAA-NH2; staple 4-11)")
5

* * *

Assay Explanation: EPSA
Type: physicochemical
Positions of bridges follow the written chain, without caps; N, C: chain ends. Non-standard residues stand in square brackets, D forms with d. Residues, ends and D or L forms follow the SMILES beside them. Lys(N3) = [N-]=[N+]=NCCCC[C@H](N)C(=O)O; R8 = C=CCCCCCC[C@@](C)(N)C(=O)O; Cba = N[C@@H](CC1CCC1)C(=O)O; S5 = C=CCCC[C@](C)(N)C(=O)O
Observation Type: EPSA

>>> value_observed("CC(=O)N[C@@H](CCCCN=[N+]=[N-])C(=O)NCC(=O)N[C@@H](CO)C(=O)NCC(=O)N[C@H](C(=O)N[C@@H](CO)C(=O)N[C@@H](Cc1ccccc1)C(=O)N[C@]1(C)CCCCCCC=CCCC[C@@](C)(C(=O)N[C@@H](CCC(=O)O)C(N)=O)NC(=O)[C@H](CC(C)C)NC(=O)[C@H](CC(C)C)NC(=O)[C@H](C)NC(=O)[C@H](Cc2c[nH]c3ccccc23)NC(=O)[C@H](Cc2ccc(O)cc2)NC(=O)[C@H](CCC(=O)O)NC1=O)[C@@H](C)O [MP-010]")
"Poorly Behaved"
>>> value_observed("CC(=O)N[C@@H](CC(C)C)C(=O)N[C@H](C(=O)N[C@@H](Cc1ccccc1)C(=O)N[C@]1(C)CCCCCCC=CCCC[C@@](C)(C(=O)N[C@@H](CO)C(=O)N[C@@H](C)C(=O)N[C@@H](C)C(N)=O)NC(=O)[C@H](CC(C)C)NC(=O)[C@H](CCC(N)=O)NC(=O)[C@H](C)NC(=O)[C@H](Cc2c[nH]c3ccccc23)NC(=O)[C@H](Cc2ccc(O)cc2)NC(=O)[C@H](CCC(=O)O)NC1=O)[C@@H](C)O [MP-211]")
201
>>> value_observed("CC(=O)N[C@@H](CCCCN=[N+]=[N-])C(=O)N[C@@H](CC(C)C)C(=O)N[C@H](C(=O)N[C@@H](Cc1ccccc1)C(=O)N[C@]1(C)CCCCCCC=CCCC[C@@](C)(C(=O)N[C@@H](CCC(=O)O)C(N)=O)NC(=O)[C@H](CC2CCC2)NC(=O)[C@H](CCC(N)=O)NC(=O)[C@H](C)NC(=O)[C@H](Cc2c[nH]c3ccccc23)NC(=O)[C@H](Cc2ccc(O)cc2)NC(=O)[C@H](CCC(=O)O)NC1=O)[C@@H](C)O [MP-4008] (Ac-[Lys(N3)]LTF[R8]EYWAQ[Cba][S5]E-NH2; staple 5-12)")
"Poorly Behaved"
>>> value_observed("CC(=O)N[C@@H](CCCCN=[N+]=[N-])C(=O)NCCC(=O)N[C@@H](CC(C)C)C(=O)N[C@H](C(=O)N[C@@H](Cc1ccccc1)C(=O)N[C@]1(C)CCCCCCC=CCCC[C@@](C)(C(=O)N[C@@H](CO)C(=O)N[C@@H](C)C(=O)N[C@@H](CCC(=O)O)C(N)=O)NC(=O)[C@H](CC2CCC2)NC(=O)[C@H](CCC(N)=O)NC(=O)[C@H](C)NC(=O)[C@H](Cc2c[nH]c3ccccc23)NC(=O)[C@H](Cc2ccc(O)cc2)NC(=O)[C@H](CCC(=O)O)NC1=O)[C@@H](C)O [MP-524]")
"Poorly Behaved"
>>> value_observed("CC(=O)N[C@@H](CCCCN)C(=O)NCCCCCC(=O)N[C@H](C(=O)N[C@@H](CO)C(=O)N[C@@H](Cc1ccccc1)C(=O)N[C@]1(C)CCCCCCC=CCCC[C@@](C)(C(=O)N[C@@H](CCC(=O)O)C(=O)N[C@@H](CC(N)=O)C(=O)N[C@@H](Cc2ccccc2)C(N)=O)NC(=O)[C@H](CC(C)C)NC(=O)[C@H](CC(C)C)NC(=O)[C@H](C)NC(=O)[C@H](Cc2c[nH]c3ccccc23)NC(=O)[C@H](Cc2ccc(O)cc2)NC(=O)[C@H](CCC(=O)O)NC1=O)[C@@H](C)O [MP-82094]")
"Poorly Behaved"
